- EXPERIMENTAL TARGET: human Gal-3 (hGal-3) (Homo sapiens (Human))
- Sequence (P17931 whole entry): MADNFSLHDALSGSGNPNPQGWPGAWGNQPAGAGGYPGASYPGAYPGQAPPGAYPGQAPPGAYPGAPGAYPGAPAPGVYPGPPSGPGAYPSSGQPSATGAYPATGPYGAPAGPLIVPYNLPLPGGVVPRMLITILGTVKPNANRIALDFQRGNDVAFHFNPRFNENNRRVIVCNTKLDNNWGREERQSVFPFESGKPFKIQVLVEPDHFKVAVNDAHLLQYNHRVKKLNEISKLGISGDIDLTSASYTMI
- ASSAY TEXT: competitive binding assay: biotinylated hGal-3 binding to microplate-adsorbed asialofetuin (ASF)
- CONDITION PARAMETERS: Gal-3 inhibition; binding of biotinylated hGal-3 to ASF; mean values; read-out: IC50
ATTRIBUTE MEASURED: IC50 (µM)

A: OC[C@H](S[C@@H]1O[C@H](CO)[C@H](O)[C@H](n2cc(-c3cc(F)c(F)c(F)c3)nn2)[C@H]1O)c1ccccc1 [Example 2.30.100R.]
B: CC(C)c1cccnc1[C@@H](S[C@@H]1O[C@H](CO)[C@H](O)[C@H](n2cc(-c3cc(F)c(F)c(F)c3)nn2)[C@H]1O)C1(O)CCC(F)(F)CC1 [Example 2.44.132R.]
C: CC(C)(O)[C@H](S[C@@H]1O[C@H](CO)[C@H](O)[C@H](n2cc(-c3cc(F)c(F)c(F)c3)nn2)[C@H]1O)c1ccccc1C(F)(F)F [Example 2.31.112R.]
# ascending order, key=IC50 List each label, following the requested order.
B, C, A
(B: 0.05 µM, C: 0.29 µM, A: 0.8 µM)

---

- EXPERIMENTAL TARGET: human Gal-3 (hGal-3) (Homo sapiens (Human))
- ASSAY TEXT: competitive binding assay: biotinylated hGal-3 binding to microplate-adsorbed asialofetuin (ASF)
- CONDITION PARAMETERS: Gal-3 inhibition; binding of biotinylated hGal-3 to ASF; mean values; read-out: IC50
pIC50: −log10 of the molar value.
ATTRIBUTE MEASURED: pIC50

Worked examples, 5 compounds total:
COMPOUND	VALUE
CC(C)(O)[C@@H](S[C@@H]1O[C@H](CO)[C@H](O)[C@H](n2cc(-c3cc(F)c(F)c(F)c3)nn2)[C@H]1O)c1cccnc1C(F)(F)F [Example 2.31.118S.]	5.21
CS(=O)(=O)N1CC(O)(C(S[C@@H]2O[C@H](CO)[C@H](O)[C@H](n3cc(-c4cc(F)c(F)c(F)c4)nn3)[C@H]2O)c2ccccc2C(F)(F)F)C1 (some centres unmarked)	6.66
Cc1cccnc1C(S[C@@H]1O[C@H](CO)[C@H](O)[C@H](n2cc(-c3cc(F)c(F)c(F)c3)nn2)[C@H]1O)C1(O)CCOCC1 (some centres unmarked)	7.10
CNS(=O)(=O)N1CCC(O)(C(S[C@@H]2O[C@H](CO)[C@H](O)[C@H](n3cc(-c4cc(F)c(F)c(F)c4)nn3)[C@H]2O)c2ccccc2C(F)(F)F)CC1 (some centres unmarked)	7.30
CC(C)(O)[C@@H](S[C@@H]1O[C@H](CO)[C@H](O)[C@H](n2cc(-c3cc(F)c(F)c(F)c3)nn2)[C@H]1O)c1cccc2ccccc12 [Example 2.31.115S.]	4.99

P: CCC(O)(CC)[C@@H](S[C@@H]1O[C@H](CO)[C@H](O)[C@H](n2cc(-c3cc(F)c(F)c(F)c3)nn2)[C@H]1O)c1conc1C [Example 2.32.120S.]
Q: CC(C)(O)[C@H](S[C@@H]1O[C@H](CO)[C@H](O)[C@H](n2cc(-c3cc(F)c(F)c(F)c3)nn2)[C@H]1O)c1cccc2ccccc12 [Example 2.31.115R.]
R: CC(C)c1cccnc1C(S[C@@H]1O[C@H](CO)[C@H](O)[C@H](n2cc(-c3cc(F)c(F)c(F)c3)nn2)[C@H]1O)C1(O)CCC(F)(F)CC1 (some centres unmarked)
# sort list by recorded pIC50, greatest to least List each label, following the requested order.
R, Q, P

P: OC[C@H]1O[C@@H](S[C@@H](c2ncccc2C2CC2)C2(O)CCC(F)(F)CC2)[C@H](O)[C@@H](n2cc(-c3cc(F)c(F)c(F)c3)nn2)[C@H]1O [Example 2.44.134S.]
Q: CCCc1ccccc1C(S[C@@H]1O[C@H](CO)[C@H](O)[C@H](n2cc(-c3cc(F)c(F)c(F)c3)nn2)[C@H]1O)C(C)(C)O (some centres unmarked)
Looking only at measured pIC50, which entry is lower, P or Q ? Please identify the chosen entry by its label.
P

---

- EXPERIMENTAL TARGET: UniProtKB P09382
ATTRIBUTE MEASURED: IC50 (µM)

COMPOUND	VALUE
CO[C@@H]1[C@@H](n2cc(-c3cc(F)c(C)c(F)c3)nn2)[C@@H](O)[C@@H](CO)O[C@H]1S[C@@H](c1ncccc1C)C1(O)CCC(F)(F)CC1 [Example 3.44.126S.I.]	20

A: CO[C@@H]1[C@@H](n2cc(-c3cc(F)c(F)c(F)c3)nn2)[C@@H](O)[C@@H](CO)O[C@H]1S[C@@H](c1nc(C)c(C)nc1C)C1(O)CCC(F)(F)CC1 [Example 2.44.119S.I.]
B: OC[C@H]1O[C@@H](SC(c2ccccc2C(F)(F)F)C2(O)CCNCC2)[C@H](O)[C@@H](n2cc(-c3cc(F)c(F)c(F)c3)nn2)[C@H]1O (some centres unmarked) [Example 2.45.112.]
C: Cc1ccccc1[C@H](S[C@@H]1O[C@H](CO)[C@H](O)[C@H](n2cc(-c3cc(F)c(F)c(F)c3)nn2)[C@H]1O)C1(O)CCCC1 [Example 2.38.102S.]
D: Cc1cccnc1C(S[C@@H]1O[C@H](CO)[C@H](O)[C@H](n2cc(-c3cc(F)c(F)c(F)c3)nn2)[C@H]1O)C1(O)CCOCC1 (some centres unmarked) [Example 2.41.126.]
Sort (4 compounds) by IC50: min first. List each label, following the requested order.
B, D, C, A
(B: 0.46 µM, D: 0.8 µM, C: 17 µM, A: 28.6 µM)

---

- EXPERIMENTAL TARGET: human Gal-1 (hGal-1) (Homo sapiens (Human), UniProt P09382)
- Sequence (P09382 whole entry): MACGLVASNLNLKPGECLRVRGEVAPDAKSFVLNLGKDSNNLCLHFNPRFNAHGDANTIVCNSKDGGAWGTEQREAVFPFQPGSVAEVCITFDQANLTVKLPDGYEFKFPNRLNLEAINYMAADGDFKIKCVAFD
pIC50: −log10 of the molar value.
ATTRIBUTE MEASURED: pIC50

Worked examples, 6 compounds total:
COMPOUND	EXPERIMENTAL TARGET	pIC50
CCc1onc([C@@H](S[C@@H]2O[C@H](CO)[C@H](O)[C@H](n3cc(-c4cc(F)c(F)c(F)c4)nn3)[C@H]2OC)C2(O)CCC(F)(F)CC2)c1C [Example 2.44.140R.I.]	human Gal-1 (hGal-1) (Homo sapiens (Human), UniProt P09382)	6.15
CC(C)(O)[C@@H](S[C@@H]1O[C@H](CO)[C@H](O)[C@H](n2cc(-c3cc(F)c(F)c(F)c3)nn2)[C@H]1O)c1ccccc1CCO [Example 2.31.108S.]	human Gal-1 (hGal-1) (Homo sapiens (Human), UniProt P09382)	4.59
CO[C@@H]1[C@@H](n2cc(-c3cc(F)c(C)c(F)c3)nn2)[C@@H](O)[C@@H](CO)O[C@H]1S[C@H](c1ncccc1C)C1(O)CCC(F)(F)CC1 [Example 3.44.126R.I.]	human Gal-1 (hGal-1) (Homo sapiens (Human), UniProt P09382)	5.61
CC(C)Cc1c([C@H](S[C@@H]2O[C@H](CO)[C@H](O)[C@H](n3cc(-c4cc(F)c(F)c(F)c4)nn3)[C@H]2O)C2(O)CCC(F)(F)CC2)noc1C1CC1 [Example 2.44.131S.]	human Gal-1 (hGal-1) (Homo sapiens (Human), UniProt P09382)	4.86
CO[C@@H]1[C@@H](n2cc(-c3cc(F)c(F)c(F)c3)nn2)[C@@H](O)[C@@H](CO)O[C@H]1S[C@H](c1c(C)cnn1C)C1(O)CCC(F)(F)CC1 [Example 2.44.136R.I.]	human Gal-1 (hGal-1) (Homo sapiens (Human), UniProt P09382)	5.72
Cc1cccnc1C(S[C@@H]1O[C@H](CO)[C@H](O)[C@H](n2cc(-c3cc(F)c(F)c(F)c3)nn2)[C@H]1O)C1(O)CCC(F)(F)CC1 (stereo partly drawn)	human Gal-1 (hGal-1) (Homo sapiens (Human), UniProt P09382)	7.22

a: Cc1conc1[C@@H](S[C@@H]1O[C@H](CO)[C@H](O)[C@H](n2cc(-c3cc(F)c(F)c(F)c3)nn2)[C@H]1O)C1(O)CCC(F)(F)CC1 [Example 2.44.120R.]
b: Cc1ccccc1[C@H](S[C@@H]1O[C@H](CO)[C@H](O)[C@H](n2cc(-c3cc(F)c(F)c(F)c3)nn2)[C@H]1O)C1(O)CCOCC1 [Example 2.41.102S.]
c: Cc1cccnc1[C@@H](S[C@@H]1O[C@H](CO)[C@H](O)[C@H](n2cc(-c3cc(F)c(F)c(F)c3)nn2)[C@H]1O)C1(O)CCOCC1 [Example 2.41.126R.]
d: Cc1nc([C@H](S[C@@H]2O[C@H](CO)[C@H](O)[C@H](n3cc(-c4cc(F)c(F)c(F)c4)nn3)[C@H]2O)C(C)(C)O)c(C)s1 [Example 2.31.123S.]
# sort list by recorded pIC50, greatest to least List each label, following the requested order.
a, c, d, b

I: OC[C@H]1O[C@@H](S[C@H](c2ccccc2C(F)(F)F)C2(O)CC(F)(F)C2)[C@H](O)[C@@H](n2cc(-c3cc(F)c(F)c(F)c3)nn2)[C@H]1O [Example 2.33.112R.]
II: CO[C@@H]1[C@@H](n2cc(-c3cc(F)c(F)c(F)c3)nn2)[C@@H](O)[C@@H](CO)O[C@H]1S[C@@H](c1nccc(Cl)c1C)C1(O)CCC(F)(F)CC1 [Example 2.44.141S.I.]
Looking only at measured pIC50, which entry is lower, I or II ? Please identify the chosen entry by its label.
II
(II: 4.98, I: 6.17)

P: CC(C)c1ccccc1C(CO)S[C@@H]1O[C@H](CO)[C@H](O)[C@H](n2cc(-c3cc(F)c(F)c(F)c3)nn2)[C@H]1O (stereo partly drawn)
Q: CO[C@@H]1[C@@H](n2cc(-c3cc(F)c(F)c(F)c3)nn2)[C@@H](O)[C@@H](CO)O[C@H]1S[C@@H](c1ccccc1C(C)C)C1(O)CCC(F)(F)CC1 [Example 2.44.105S.I.]
R: CO[C@@H]1[C@@H](n2cc(-c3cc(F)c(F)c(F)c3)nn2)[C@@H](O)[C@@H](CO)O[C@H]1S[C@H](c1noc(C2CC2)c1CC(C)C)C1(O)CCC(F)(F)CC1 [Example 2.44.131R.I.]
S: Cc1nc([C@@H](S[C@@H]2O[C@H](CO)[C@H](O)[C@H](n3cc(-c4cc(F)c(F)c(F)c4)nn3)[C@H]2O)C(C)(C)O)c(C)o1 [Example 2.31.122R.]
# sort list by recorded pIC50, greatest to least List each label, following the requested order.
R, S, P, Q
(R: 7.00, S: 6.17, P: 5.76, Q: 4.27)
